- Test system: YAP/TAZ-TEAD transcription
- Assay overview: Reporter gene assay for measuring the inhibition of YAP/TAZ-TEAD transcription (TEAD-responsive element luciferase reporter in Hek293T cells)
- Type: cell-based
- Condition summary: Homo sapiens, HEK-293T, 24 h, Hek293T cells transiently transfected with TEAD-responsive element luciferase reporter; 24 hours incubation
Below: a set of entries, each annotated with reported IC50.

Molecule | IC50
C=CC(=O)NC1Cc2ccccc2N(c2ccc(-c3ccccc3)cc2)C1 (centres unmarked) [compound 008] | < 1000 nM

Exam item: Under YAP/TAZ-TEAD transcription: IC50 value of C=CC(=O)NC1Cc2ccccc2N(c2ccc(C(F)(F)F)cn2)C1 (centres unmarked) [compound 011] ?
Marked response: < 1000 nM

Exam item: Under YAP/TAZ-TEAD transcription: IC50 value of C=CC(=O)NC1Cc2ccccc2N(c2ccc(Cl)cc2)C1 (centres unmarked) [compound 033] ?
Marked response: < 1000 nM

Exam item: Under YAP/TAZ-TEAD transcription: IC50 value of O=C(O)CNC1Cc2ccccc2N(c2ccc(C(F)(F)F)cc2)C1 (centres unmarked) [compound 044] ?
Marked response: > 20000 nM

Exam item: Under YAP/TAZ-TEAD transcription: IC50 value of C=CC(=O)NC1Cc2cnccc2N(c2ccc(C(F)(F)F)cc2)C1 (centres unmarked) [compound 082] ?
Marked response: 1000 to 20000 nM
